- tgt: Eukaryotic translation initiation factor 4E (Mus musculus)
- Sequence (P63073 whole entry): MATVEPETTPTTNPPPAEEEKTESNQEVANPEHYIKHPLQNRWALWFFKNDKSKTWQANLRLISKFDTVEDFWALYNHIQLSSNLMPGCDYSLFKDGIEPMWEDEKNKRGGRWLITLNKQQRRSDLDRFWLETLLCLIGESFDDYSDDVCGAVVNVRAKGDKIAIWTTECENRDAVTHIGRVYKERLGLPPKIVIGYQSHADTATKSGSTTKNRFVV
- assay info: blockers of eIF4G binding by eIF4E – biochemical, TR-FRET, dose response (AID 855);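 note: potency for disrupting eIF4E binding to eIF4GI seen as loss of FRET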
- Assay type: functional
Active and inactive are the calls of the source. The rule behind the calls is not given here.
measured metric: IC50

COc1ccc(/N=c2\ssnc2Cl)cc1 : 43.2 µM (inactive)
Cc1ccc(S(=O)(=O)/N=C2/C=C(Sc3nc[nH]n3)C(=O)c3ccccc32)cc1 : > 64 µM (inactive)
O=[N+]([O-])c1cc(CN2CCOCC2)c2cccnc2c1O : 50 µM (inactive)
CC(C)CN(CC(C)C)c1ccc(C=C2C(=O)NC(=S)NC2=O)cc1[N+](=O)[O-] : 42.1 µM (inactive)
CCN(CC)CCCNC(=O)CC1Sc2ccccc2NC1=O (stereo not given) : > 64 µM (inactive)
